The reported measurements were obtained from ChEMBL document CHEMBL5505993.

Item-by-item account of IC50
tested on: HT-29; assay: Cytotoxicity against human HT-29 cells assessed as inhibition of cell growth incubated for 48 hrs by CCK-8 assay; type: functional, cell-based; conditions: HT-29, 48 h
Quick reminder: number only, in µM, skip the unit.

COMPOUND STRING | UNIT TAG | IC50
C=C(Cl)C(=O)NCCCCCCCCCCCC(=O)Oc1c(OC)ccc2c1[C@@]13CCN(C)[C@@H](C2)[C@H]1C=C(OC)C(=O)C3 | µM | 6.71

// moving on: another record for IC50
Measured IC50 of `CCCCCCCCCCCC(=O)Oc1c(OC)ccc2c1[C@@]13CCN(C)[C@@H](C2)[C@H]1C=C(OC)C(=O)C3` : 4

====

experiment: Cytotoxicity against human NCM460 cells assessed as inhibition of cell growth incubated for 48 hrs by CCK-8 assay; format: toxicity, cell-based
Below: a set of entries, each annotated with reported IC50 at 48 h.

Look over these answered cases.
COMPOUND STRING | IC50 at 48 h
C=CC(=O)Oc1c(OC)ccc2c1[C@@]13CCN(C)[C@@H](C2)[C@H]1C=C(OC)C(=O)C3 | 32.5 µM
C=C(Cl)C(=O)NCCC(=O)Oc1c(OC)ccc2c1[C@@]13CCN(C)[C@@H](C2)[C@H]1C=C(OC)C(=O)C3 | 34.5 µM
C/C=C/C(=O)Oc1c(OC)ccc2c1[C@@]13CCN(C)[C@@H](C2)[C@H]1C=C(OC)C(=O)C3 | > 50 µM

For reference, reported IC50 at 48 h for `CCCCCCC(=O)Oc1c(OC)ccc2c1[C@@]13CCN(C)[C@@H](C2)[C@H]1C=C(OC)C(=O)C3` stands at > 50 µM

// IC50 at 48 h value for `COC1=C[C@@H]2[C@@H]3Cc4ccc(OC)c(OC(=O)CCl)c4[C@]2(CCN3C)CC1=O` : > 50 µM

compound `COC1=C[C@@H]2[C@@H]3Cc4ccc(OC)c(OC(=O)/C=C/c5ccccc5)c4[C@]2(CCN3C)CC1=O` , IC50 at 48 h observed: > 50 µM

Entry `C=C(Cl)C(=O)NCCCCCCCC(=O)Oc1c(OC)ccc2c1[C@@]13CCN(C)[C@@H](C2)[C@H]1C=C(OC)C(=O)C3` ; IC50 at 48 h = > 50 µM

====

test system: HT-29; assay: Cytotoxicity against human HT-29 cells assessed as inhibition of cell growth incubated for 48 hrs by CCK-8 assay; format: functional, cell-based; settings: HT-29, 48 h
Known pIC50 of a selection of compounds
On this scale, pIC50 is minus log10 of a concentration expressed in M (mol/L).

COMPOUND STRING | QUANTITY KIND | TEST RESULT
COC1=C[C@@H]2[C@@H]3Cc4ccc(OC)c(OC(=O)CCCCCCCCCCCNC(=O)/C=C/C(F)(F)F)c4[C@]2(CCN3C)CC1=O | pIC50 | 5.06

// next entry
Reported pIC50 (HT-29) for entry `COC1=C[C@@H]2[C@@H]3Cc4ccc(OC)c(OC(=O)/C=C/C(F)(F)F)c4[C@]2(CCN3C)CC1=O` is 5.22

====

system: HT-29; assay: Cytotoxicity against human HT-29 cells assessed as inhibition of cell growth incubated for 48 hrs by CCK-8 assay; type: functional, cell-based; settings: HT-29, 48 h
Reported pIC50 values follow for various compounds
Reminder that pIC50 is minus the log10 of a molar concentration.

COMPOUND STRING | ASSAY TARGET | pIC50
C=C(Cl)C(=O)NCCC(=O)Oc1c(OC)ccc2c1[C@@]13CCN(C)[C@@H](C2)[C@H]1C=C(OC)C(=O)C3 | HT-29 | 5.02

GET /value?item= `CCCCCCC(=O)Oc1c(OC)ccc2c1[C@@]13CCN(C)[C@@H](C2)[C@H]1C=C(OC)C(=O)C3` &field=pIC50 returns 4.50

Given item `C=CC(=O)Oc1c(OC)ccc2c1[C@@]13CCN(C)[C@@H](C2)[C@H]1C=C(OC)C(=O)C3` , the value recorded as its pIC50 is 5.04

====

# Lookup of reported IC50 at 48 h keyed by entry
assay: Cytotoxicity against human NCM460 cells assessed as inhibition of cell growth incubated for 48 hrs by CCK-8 assay; type: toxicity, cell-based
Express it in µM; write the number only.

For orientation, consider the following solved cases.
COMPOUND STRING | IC50 at 48 h [µM]
COC1=C[C@@H]2[C@@H]3Cc4ccc(OC)c(OC(=O)CCCCCCCCCCCNC(=O)/C=C/C(F)(F)F)c4[C@]2(CCN3C)CC1=O | 22.9
CCCCCCCCCCCC(=O)Oc1c(OC)ccc2c1[C@@]13CCN(C)[C@@H](C2)[C@H]1C=C(OC)C(=O)C3 | 9.85
C=C(Cl)C(=O)Oc1c(OC)ccc2c1[C@@]13CCN(C)[C@@H](C2)[C@H]1C=C(OC)C(=O)C3 | 35.2

Moving on to the next compound.
Consider `COC1=C[C@@H]2[C@@H]3Cc4ccc(OC)c(OC(=O)/C=C/C(F)(F)F)c4[C@]2(CCN3C)CC1=O` . Its measured IC50 at 48 h is 16

====

system: HCT-116; assay: Cytotoxicity against human HCT-116 cells assessed as inhibition of cell growth incubated for 12 hrs by CCK-8 assay; format: functional, cell-based; settings: HCT-116, 12 h
QUANTITY KIND: pIC50
As a rule, pIC50 stands for the negative log10 of the concentration, concentration in M.

In plain terms, `C=C(Cl)C(=O)NCCCCCCCCCCCC(=O)Oc1c(OC)ccc2c1[C@@]13CCN(C)[C@@H](C2)[C@H]1C=C(OC)C(=O)C3` has a documented pIC50 of 4.82

====

tested on: HT-29; assay: Cytotoxicity against human HT-29 cells assessed as inhibition of cell growth incubated for 48 hrs by CCK-8 assay; format: functional, cell-based; details: HT-29, 48 h
QUANTITY KIND: pIC50
pIC50 field: float, defined as -log10 of concentration (mol/L).

COMPOUND STRING | pIC50
COC1=C[C@@H]2[C@@H]3Cc4ccc(OC)c(OC(=O)c5ccc(Cl)cc5)c4[C@]2(CCN3C)CC1=O | 4.60
C=CC(=O)NCCCCCCCCCCCC(=O)Oc1c(OC)ccc2c1[C@@]13CCN(C)[C@@H](C2)[C@H]1C=C(OC)C(=O)C3 | 5.15

The molecule listed as `C=C(Cl)C(=O)NCCCCCCCC(=O)Oc1c(OC)ccc2c1[C@@]13CCN(C)[C@@H](C2)[C@H]1C=C(OC)C(=O)C3` shows pIC50 equal to 4.75

====

test system: HT-29; assay: Cytotoxicity against human HT-29 cells assessed as inhibition of cell growth incubated for 48 hrs by CCK-8 assay; assay type: functional, cell-based; conditions: HT-29, 48 h
Recorded IC50 for the following compounds

In the examples that follow, each entry is paired with its recorded IC50.
COMPOUND STRING | TEST RESULT
C=CCCC(=O)Oc1c(OC)ccc2c1[C@@]13CCN(C)[C@@H](C2)[C@H]1C=C(OC)C(=O)C3 | > 50 µM
COC1=C[C@@H]2[C@@H]3Cc4ccc(OC)c(OC(=O)CCCCCCCNC(=O)/C=C/C(F)(F)F)c4[C@]2(CCN3C)CC1=O | > 50 µM
COC1=C[C@@H]2[C@@H]3Cc4ccc(OC)c(OC(=O)CCl)c4[C@]2(CCN3C)CC1=O | > 50 µM

Now look at this one.
GET /values?item= `COC1=C[C@@H]2[C@@H]3Cc4ccc(OC)c(OC(=O)c5ccccc5)c4[C@]2(CCN3C)CC1=O` &system= HT-29 returns IC50: > 50 µM
